- Measured On: Glutaminase kidney isoform, mitochondrial (Homo sapiens, UniProt O94925)
- Sequence (O94925 whole entry, canonical isoform): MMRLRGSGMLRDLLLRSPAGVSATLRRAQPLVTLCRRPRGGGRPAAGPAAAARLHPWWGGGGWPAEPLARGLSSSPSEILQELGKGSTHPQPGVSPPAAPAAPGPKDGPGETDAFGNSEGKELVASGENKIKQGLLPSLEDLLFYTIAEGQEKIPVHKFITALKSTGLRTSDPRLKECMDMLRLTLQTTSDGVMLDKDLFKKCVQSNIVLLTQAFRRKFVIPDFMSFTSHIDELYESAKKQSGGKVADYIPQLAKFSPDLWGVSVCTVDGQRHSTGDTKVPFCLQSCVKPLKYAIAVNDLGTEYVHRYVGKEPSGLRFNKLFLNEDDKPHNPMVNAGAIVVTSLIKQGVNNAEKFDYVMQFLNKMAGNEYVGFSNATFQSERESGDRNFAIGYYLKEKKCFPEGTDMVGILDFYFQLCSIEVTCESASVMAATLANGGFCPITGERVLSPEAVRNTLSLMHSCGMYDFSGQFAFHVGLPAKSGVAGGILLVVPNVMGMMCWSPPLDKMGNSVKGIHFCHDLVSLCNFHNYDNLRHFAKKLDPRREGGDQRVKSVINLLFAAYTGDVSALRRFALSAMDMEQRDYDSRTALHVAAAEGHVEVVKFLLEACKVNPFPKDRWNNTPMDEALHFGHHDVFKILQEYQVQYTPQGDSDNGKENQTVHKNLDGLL
- Method Notes: Inhibition of recombinant KGA (unknown origin) using glutamine as substrate
pIC50: −log10 of the molar value.
Outcome Measure: pIC50

Examples with answers:
CC(=O)O[C@H]1C[C@H]([C@H](C)[C@H]2C[C@]3(C)O[C@]3(C)[C@H](O)O2)[C@@]2(C)CC[C@H]3[C@@H](C[C@@H]4O[C@]45[C@@H](O)C=CC(=O)[C@]35C)[C@H]12: 5.00
C[C@@H]([C@H]1CC[C@H]2[C@@H]3CC=C4C[C@@H](O[C@@H]5O[C@H](CO[C@@H]6O[C@H](CO)[C@@H](O)[C@H](O)[C@H]6O)[C@@H](O)[C@H](O)[C@H]5O)C[C@H](O)[C@]4(C)[C@H]3CC[C@]12C)[C@H]1C[C@@](C)(O)[C@](C)(O)C(O)O1 (stereo partly specified): < 4.00
C[C@@H]([C@H]1CC[C@H]2[C@@H]3CC=C4C[C@@H](O)C[C@H](O)[C@]4(C)[C@H]3CC[C@]12C)[C@H]1C[C@](C)(O)[C@](C)(O)C(=O)O1: < 4.00
C[C@@H]([C@H]1CC[C@H]2[C@@H]3CC=C4C[C@@H](O)C[C@H](O)[C@]4(C)[C@H]3CC[C@]12C)[C@H]1C[C@@](C)(O)[C@](C)(O)C(O)O1 (stereo partly specified): < 4.00
CO[C@@H]1O[C@@H]([C@@H](C)[C@H]2CC[C@H]3[C@@H]4CC=C5C[C@@H](O[C@@H]6O[C@H](CO[C@@H]7O[C@H](CO)[C@@H](O)[C@H](O)[C@H]7O)[C@@H](O)[C@H](O)[C@H]6O)C[C@H](O)[C@]5(C)[C@H]4CC[C@]23C)C[C@](C)(OC)[C@]1(C)O: < 4.00

In the following, a different molecule is considered.
Consider the molecule shown here: `C[C@@H]([C@H]1CC[C@H]2[C@@H]3CC=C4C[C@@H](O[C@@H]5O[C@H](CO[C@@H]6O[C@H](CO)[C@@H](O)[C@H](O)[C@H]6O)[C@@H](O)[C@H](O)[C@H]5O)C[C@H](O)[C@]4(C)[C@H]3CC[C@]12C)[C@H]1C[C@](C)(O)[C@](C)(O)C(=O)O1` What is its recorded pIC50? < 4.00

Reference source for all entries: ChEMBL document CHEMBL3994651
